conditions: 298.15 K; 101.33 kPa; Liquid; Cone and plate viscometry
Measure: log10 of viscosity (log10 of the value in mPa·s)
Hi team, quick reminder: these entries are log10 of viscosity (mPa·s).

Entry C[N+](C)(C)CCO.N[C@@H](CO)C(=O)[O-] [2-hydroxy-N,N,N-trimethylethanaminium L-serinate] has what log10 of viscosity?
4.06

Entry C[N+](C)(C)CCO.O=C([O-])[C@@H]1CCCN1 [2-hydroxy-N,N,N-trimethylethanaminium L-prolinate] has what log10 of viscosity?
4.03

Entry C[N+](C)(C)CCO.NCC(=O)[O-] [2-hydroxy-N,N,N-trimethylethanaminium glycinate] has what log10 of viscosity?
2.26

Entry C[N+](C)(C)CCO.NCCC(=O)[O-] [2-hydroxy-N,N,N-trimethylethanaminium β-alaninate] has what log10 of viscosity?
3.71

New cases:
Entry C[C@H](N)C(=O)[O-].C[N+](C)(C)CCO [2-hydroxy-N,N,N-trimethylethanaminium L-alaninate] has what log10 of viscosity?
2.59

* * *

conditions: 318.15 K; 101.33 kPa; Liquid; Vibrating tube method
Would you mind telling me the reported mass density of each entry?
Give bare numbers, in kg/m3.

Entry C[C@H](N)C(=O)[O-].C[N+](C)(C)CCO [2-hydroxy-N,N,N-trimethylethanaminium L-alaninate] has what mass density?
1101.21

# per-item lookup of mass density; items listed below
1. C[N+](C)(C)CCO.NCC(=O)[O-] [2-hydroxy-N,N,N-trimethylethanaminium glycinate]
2. C[N+](C)(C)CCO.N[C@@H](CO)C(=O)[O-] [2-hydroxy-N,N,N-trimethylethanaminium L-serinate]
3. C[N+](C)(C)CCO.O=C([O-])[C@@H]1CCCN1 [2-hydroxy-N,N,N-trimethylethanaminium L-prolinate]
4. C[N+](C)(C)CCO.NCCC(=O)[O-] [2-hydroxy-N,N,N-trimethylethanaminium β-alaninate]

1133.97
1179.92
1109.61
1108.98

* * *

assay: refractive index (Na D-line) (dimensionless); conditions: 303.15 K; 101.33 kPa; Liquid; Standard Abbe refractometry
Measure: refractive index
Answers are plain numbers.

Worked examples follow.
Entry C[N+](C)(C)CCO.N[C@@H](CO)C(=O)[O-] [2-hydroxy-N,N,N-trimethylethanaminium L-serinate] has what refractive index?
1.5416

Entry C[N+](C)(C)CCO.O=C([O-])[C@@H]1CCCN1 [2-hydroxy-N,N,N-trimethylethanaminium L-prolinate] has what refractive index?
1.5402

Entry C[N+](C)(C)CCO.NCC(=O)[O-] [2-hydroxy-N,N,N-trimethylethanaminium glycinate] has what refractive index?
1.5213

Entry C[C@H](N)C(=O)[O-].C[N+](C)(C)CCO [2-hydroxy-N,N,N-trimethylethanaminium L-alaninate] has what refractive index?
1.5127

New cases:
Entry C[N+](C)(C)CCO.NCCC(=O)[O-] [2-hydroxy-N,N,N-trimethylethanaminium β-alaninate] has what refractive index?
1.5306

* * *

Would you mind telling me the reported electrical conductivity of each entry?
conditions: 343.15 K; 101.33 kPa; Liquid; conductivity meter (DDJS-308A)
Answers are plain numbers, in S/m.

Worked examples follow.
Entry C[C@H](N)C(=O)[O-].C[N+](C)(C)CCO [2-hydroxy-N,N,N-trimethylethanaminium L-alaninate] has what electrical conductivity?
0.0655

Entry C[N+](C)(C)CCO.NCC(=O)[O-] [2-hydroxy-N,N,N-trimethylethanaminium glycinate] has what electrical conductivity?
0.0993

Entry C[N+](C)(C)CCO.NCCC(=O)[O-] [2-hydroxy-N,N,N-trimethylethanaminium β-alaninate] has what electrical conductivity?
0.0379

Entry C[N+](C)(C)CCO.O=C([O-])[C@@H]1CCCN1 [2-hydroxy-N,N,N-trimethylethanaminium L-prolinate] has what electrical conductivity?
0.00649

Attention now turns to another entry.
Entry C[N+](C)(C)CCO.N[C@@H](CO)C(=O)[O-] [2-hydroxy-N,N,N-trimethylethanaminium L-serinate] has what electrical conductivity?
0.037

Values compiled from the NIST ThermoML archive (doi:10.1021/je301103d).
